Target System: DCN1 (DCUND1) protein PONY domain (Homo sapiens (Human), UniProt Q96GG9)
Sequence (Q96GG9 60-248): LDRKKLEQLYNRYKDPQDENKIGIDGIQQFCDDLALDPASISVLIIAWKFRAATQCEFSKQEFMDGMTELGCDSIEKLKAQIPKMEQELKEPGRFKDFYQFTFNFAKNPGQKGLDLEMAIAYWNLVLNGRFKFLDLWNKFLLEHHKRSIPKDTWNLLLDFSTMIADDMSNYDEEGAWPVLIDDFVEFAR
Assay Comment: Off-rate measurement of reversible covalent molecules (jump dilution TR-FRET with Cy5 probe)
Format: binding
Protocol Conditions: binding mode category from off-rate assay
Result Type: Category

Compound	Measured
CCN1C(=O)[C@@H](NC(=O)c2cccc(C(F)(F)F)c2)[C@@H](c2ccc(F)cc2)c2c([C@@H](C)NC#N)nn(-c3ccccc3)c21 [Compound I-73]	irreversible covalent
CCc1cccc(C(=O)N[C@@H]2C(=O)N(CC)c3c(c(C(=O)N4[C@H](C#N)C[C@H]5C[C@H]54)nn3C3CCOCC3)[C@@H]2C2CC2)c1 [Compound I-552]	reversible covalent
CCN1C(=O)[C@@H](NC(=O)c2cccc(C(F)(F)F)c2)[C@@H](C2CC2)c2c(C(=O)N3CCOC[C@H]3C#N)nn(C3CCOCC3)c21 [Compound I-381]	reversible covalent
CCN1C(=O)[C@@H](NC(=O)c2cccc(C(F)(F)F)c2)[C@@H](C2CC2)c2c(C(=O)N3[C@H](C#N)C[C@H]4C[C@H]43)nn(C3CCOCC3)c21 [Compound I-256]	slow reversible
CCN1C(=O)[C@@H](NC(=O)c2cccc(C(F)(F)F)c2)[C@@H](C2CC2)c2c(C(=O)N3CCS(=O)(=O)C[C@H]3C#N)nn(C3CCOCC3)c21 (mixture of isomers) [Compound I-379]	reversible covalent

# returns recorded Category (system: DCN1 (DCUND1) protein PONY domain (Homo sapiens (Human), UniProt Q96GG9)) for CCN1C(=O)[C@@H](NC(=O)c2cccc(C(F)(F)F)c2)[C@@H](C2CC2)c2c(C(=O)N3CCN(C)C[C@H]3C#N)nn(C3CCOCC3)c21 (single isomer, unassigned) [Compound I-430]
slow reversible

# returns recorded Category (system: DCN1 (DCUND1) protein PONY domain (Homo sapiens (Human), UniProt Q96GG9)) for CCN1C(=O)[C@@H](NC(=O)c2cccc(C(F)(F)F)c2)[C@@H](C2CC2)c2c(C(=O)N3CCC[C@H]3C#N)nn(C3CCOCC3)c21 [Compound I-348]
slow reversible

# returns recorded Category (system: DCN1 (DCUND1) protein PONY domain (Homo sapiens (Human), UniProt Q96GG9)) for CCN1C(=O)[C@@H](NC(=O)c2cccc(C(F)(F)F)c2)[C@@H](c2ccc(F)cc2)c2c(C(=O)N3CCC[C@H]3C#N)nn(C3CCOCC3)c21 [Compound I-350]
slow reversible

# returns recorded Category (system: DCN1 (DCUND1) protein PONY domain (Homo sapiens (Human), UniProt Q96GG9)) for CCN1C(=O)[C@@H](NC(=O)c2cccc(C(F)(F)F)c2)[C@@H](C2CC2)c2c(C(=O)N3CCNC[C@H]3C#N)nn(-c3ccccc3)c21 [Compound I-383]
irreversible covalent

---

Target System: DCN1 (DCUND1) protein PONY domain (Homo sapiens (Human))
Assay Comment: TR-FRET assay, DCN1 binding with FAM-labeled probe
Protocol Conditions: TR FRET IC50 1 hr (nM), 1 hr after treatment with compound
Result Type: IC50

Compound	Measured
CCN1C(=O)[C@@H](NC(=O)c2cccc(C(F)(F)F)c2)[C@@H](c2ccc(F)cc2)c2c(C(=O)N3CCC[C@H]3C#N)nn(-c3cccc(OCCCN4CC5(COC5)C4)c3)c21 (stereo in doubt)	1000 to 3000 nM
CCN1C(=O)[C@@H](NC(=O)c2cccc(C(F)(F)F)c2)[C@@H](c2ccc(F)cc2)c2c(CNC(=O)C3=CCCN(C)C3)nn(-c3ccccc3)c21 (racemic)	200 to 1000 nM
CCN1C(=O)[C@@H](NC(=O)c2ccc(C3CC3)cc2)[C@@H](C2CC2)c2c(C(=O)N3[C@H](C#N)C[C@H]4C[C@H]43)nn(C3CCOCC3)c21	1000 to 3000 nM
CCN1C(=O)[C@@H](NC(=O)c2cccc(C(F)(F)F)c2)[C@@H](C2CC2)c2c(C(=O)N3[C@@H]4C[C@@H]4C[C@@H]3C#N)nn(C3CCOCC3)c21	1000 to 3000 nM
C=C(C)C(=O)N(C)Cc1nn(-c2ccccc2)c2c1[C@H](c1ccc(F)cc1)[C@H](NC(=O)c1cccc(C(F)(F)F)c1)C(=O)N2CC (racemic)	200 to 1000 nM
C=C(CC(=O)OC)C(=O)NCc1nn(-c2ccccc2)c2c1[C@H](c1ccc(F)cc1)[C@H](NC(=O)c1cccc(C(F)(F)F)c1)C(=O)N2CC (racemic) [Compound I-103]	200 to 1000 nM
C=C(CC(=O)NCc1nn(-c2ccccc2)c2c1[C@H](c1ccc(F)cc1)[C@H](NC(=O)c1cccc(C(F)(F)F)c1)C(=O)N2CC)C(=O)OC (racemic)	≤ 200 nM

// switching to the query compound
Query: IC50; subject: "CCN1C(=O)[C@@H](NC(=O)c2cccc3c2CCCO3)[C@@H](C2CC2)c2c(C(=O)N3[C@H](C#N)C[C@H]4C[C@H]43)nn(C3CCOCC3)c21"
1000 to 3000 nM

---

Test system: Cullin-3 (CUL3) neddylation
Assay Comment: AlphaLISA assay for Cullin-3 (CUL3) neddylation in TF 1 cells
Format: cell-based
Protocol Conditions: Homo sapiens, TF-1, 3 h, 3 hours treatment
pIC50: −log10 of the molar value.
Result Type: pIC50

Examples with answers:
Compound	Result Type	Measured
CCN1C(=O)[C@H](NC(=O)c2cccc(C(F)(F)F)c2)[C@H](c2ccc(F)cc2)c2c(C(=O)N[C@@H](C)C#N)nn(-c3ccccc3)c21	pIC50	< 6.00
CCN1C(=O)[C@@H](NC(=O)c2cccc(C(F)(F)F)c2)[C@@H](c2ccc(F)cc2)c2c(C(C)=O)nn(-c3ccccc3)c21 (racemic)	pIC50	< 6.00

Query: pIC50; subject: "CCN1C(=O)[C@H](NC(=O)c2cccc(C(F)(F)F)c2)[C@H](c2ccc(F)cc2)c2c(C(=O)N3CCC[C@H]3C#N)nn(-c3cccc(OCCN4CCN(C5COC5)CC4)c3)c21"
< 6.00

Query: pIC50; subject: C=C(C(=O)NCc1nn(-c2ccccc2)c2c1[C@@H](c1ccc(F)cc1)[C@H](NC(=O)c1cccc(C(F)(F)F)c1)C(=O)N2CC)C(C)N1CCOCC1 (mixture of isomers)
≥ 7.00

Query: pIC50; subject: CCN1C(=O)[C@@H](NC(=O)c2cccc(C(F)(F)F)c2)[C@@H](c2ccc(F)cc2)c2c([C@@H](C)NC(=O)CCl)nn(-c3ccccc3)c21 (mixture of isomers)
< 6.00

---

Target System: DCN1 (DCUND1) protein PONY domain (Homo sapiens (Human), UniProt Q96GG9)
Assay Comment: TR-FRET assay, DCN1 binding with FAM-labeled probe
Protocol Conditions: 24 hr after treatment with compound; read-out: TR FRET IC50 24 hr
Quick reference for IC50 among some compounds

Examples with answers:
Compound	IC50
CCN1C(=O)[C@@H](NC(=O)c2cccc3[nH]ncc23)[C@@H](C2CC2)c2c(C(=O)N3[C@H](C#N)C[C@H]4C[C@H]43)nn(C3CCOCC3)c21 [Compound I-602]	1000 to 3000 nM
CCN1C(=O)[C@@H](NC(=O)c2cccc(C(F)(F)F)c2)[C@@H](C2CCC2)c2c(C(=O)N(CC#N)C3CC3)nn(C3CCOCC3)c21 [Compound I-515]	≤ 200 nM

Query: IC50; subject: CCN1C(=O)[C@@H](NC(=O)c2cc(S(C)(=O)=O)ccc2F)[C@@H](C2CC2)c2c(C(=O)N3[C@H](C#N)C[C@H]4C[C@H]43)nn(C3CCOCC3)c21 [Compound I-475]
1000 to 3000 nM

Query: IC50; subject: CCN1C(=O)[C@@H](NC(=O)c2cccc(C(F)(F)F)c2)[C@@H](c2ccc(F)cc2)c2c(CC/C=C\C(=O)NC)nn(-c3ccccc3)c21 (racemic) [Compound I-43]
1000 to 3000 nM

Query: IC50; subject: CCN1C(=O)[C@@H](NC(=O)c2cnn(CC(F)(F)F)c2)[C@@H](C2CC2)c2c(C(=O)N3[C@H](C#N)C[C@H]4C[C@H]43)nn(C3CCOCC3)c21 [Compound I-507]
1000 to 3000 nM

Query: IC50; subject: CCN1C(=O)[C@H](NC(=O)c2cccc(C(F)(F)F)c2)[C@H](c2ccc(F)cc2)c2c(C(=O)N3C[C@H](F)C[C@@H]3C#N)nn(-c3ccccc3)c21 (mixture of isomers) [Compound I-253]
≤ 200 nM

Query: IC50; subject: CCN1C(=O)[C@@H](NC(=O)c2csc3c2CCC(C)C3)[C@@H](C2CC2)c2c(C(=O)N3[C@H](C#N)C[C@H]4C[C@H]43)nn(C3CCOCC3)c21 (stereo partly drawn) [Compound I-656]
≤ 200 nM

Query: IC50; subject: CCN1C(=O)[C@@H](NC(=O)c2cccc(C(F)(F)F)c2F)[C@@H](C2CC2)c2c(C(=O)N3[C@H](C#N)C[C@H]4C[C@H]43)nn(C3CCOCC3)c21 [Compound I-514]
≤ 200 nM

Query: IC50; subject: CCN1C(=O)[C@@H](NC(=O)c2cccc(C(F)(F)F)c2)[C@@H](c2ccc(F)cc2)c2c(C(=O)N3[C@H](C#N)C[C@@H]4C[C@@H]43)nn(-c3ccccc3)c21 [Compound I-450]
1000 to 3000 nM
